System: A549/ATCC NSCLC
testDescription: NCI-60 one-dose screen, 48 h (100 = growth as untreated, 0 = no growth, -100 = all killed)
measurementContext: 10 µM unless noted
The panel holds about 83,000 compounds, 20% with a hit somewhere; the sample as a whole holds those more often.
recordedMetric: growth (%)
# number only, unit % dropped from output

Worked examples, 4 compounds total:
# recordSmiles, unitDescriptor, growth
measured = [
    ("COc1cc(/C=C/C(=O)c2cccc(-n3cc(-c4ccccc4)[nH]c3=O)c2)cc(OC)c1OC", "%", 27.1),
    ("CCN(CC)CCOc1ccc(/C(=C(\\C)c2ccc(OC)c(F)c2)c2ccc(Cl)cc2)cc1", "%", 59.7),
    ("CCN(CC)CCOC(=O)N1c2ccccc2Sc2ccccc21", "%", 88.9),
    ("NC(=S)N/N=C/C(=O)O", "%", 92.2),
]

Value of growth reported for the compound "O=[N+]([O-])c1ccc(-c2cc3c(Nc4ccc(Sc5nc6ccccc6s5)c(Cl)c4)ncnc3s2)cc1" is 18.5

Value of growth reported for the compound "CCOC(=O)c1sc(-c2ccc(OS(=O)(=O)c3ccc(C(C)(C)C)cc3)c(C=O)c2)nc1C" is 84.9

Value of growth reported for the compound "CCCCN(Cc1ccc(C(=O)NO)cc1)C(=O)Nc1ccc(OCCCCCCCCCn2cc(CCCCC(=O)N[C@H](C(=O)N3C[C@H](O)C[C@H]3C(=O)NCc3ccc(-c4scnc4C)cc3)C(C)(C)C)nn2)cc1" is 86.8

Value of growth reported for the compound "CCOc1ccc2nc(-c3cccc(OCC(=O)NC(C)C)c3)nc(Nc3ccc(-c4cn[nH]c4)cc3)c2c1" is -34.9

Value of growth reported for the compound "O=C1N/C(=N/O)S/C1=C/c1cn(-c2ccccc2)nc1-c1ccccc1" is 93.6
